FYI, the data here is from ChEMBL document CHEMBL1135787.

Molecular target: Translocator protein (Rattus norvegicus)
Test: Inhibition of [3H]Ro-5-4864 binding to mitochondrial rat testis Peripheral type benzodiazepine receptor (PBR)
reportedMetric: log10(Ki) (log10 of the value in nM)
Use the decimal logarithm of Ki (nM).

• O=C(OC1=C(c2ccccc2)Oc2ccccc2-n2cccc21)N1CCC1 = 0.63
• O=C(NC1CC1)OC1=C(c2ccccc2)Oc2ccccc2-n2cccc21 = -0.33
• CCNC(=O)OC1=C(c2ccccc2)Oc2ccccc2-n2cccc21 = -1.00
• CCN(CC)C(=O)OC1=C(c2ccccc2)Oc2cccnc2-n2cccc21 = 1.34

Proceeding to the next compound to report its log10(Ki).
Bench note: what log10(Ki) did `CN1CCN(C(=O)OC2=C(c3ccccc3)Oc3ccccc3-n3cccc32)CC1` show? 1.18

###

Biological target: Translocator protein (Rattus norvegicus, UniProt P16257)
Sequence (P16257 whole entry, looked up): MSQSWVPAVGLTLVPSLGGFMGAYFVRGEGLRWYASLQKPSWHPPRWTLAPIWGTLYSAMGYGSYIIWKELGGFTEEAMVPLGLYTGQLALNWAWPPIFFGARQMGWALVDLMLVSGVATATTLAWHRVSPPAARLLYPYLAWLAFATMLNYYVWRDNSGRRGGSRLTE
Test: Inhibition of [3H]PK11195 binding to mitochondrial rat testis Peripheral type benzodiazepine receptor (PBR)
reportedMetric: log10 of Ki (log10 of the value in nM)
Values below are the log10 of the recorded Ki, with nM as the unit.

• CCNC(=O)OC1=C(c2ccccc2)Oc2ccccc2-n2cccc21 = -0.70
• O=C(NC1CC1)OC1=C(c2ccccc2)Oc2ccccc2-n2cccc21 = -0.51
• O=C(OC1=C(c2ccccc2)Oc2ccccc2-n2cccc21)N1CCC1 = 0.78

Required: log10 of Ki, one value per compound below.
1. CN1CCN(C(=O)OC2=C(c3ccccc3)Oc3ccccc3-n3cccc32)CC1
2. CCN(CC)C(=O)OC1=C(c2ccccc2)Oc2cccnc2-n2cccc21

1: 1.46; 2: 1.04

###

Molecular target: Translocator protein (Rattus norvegicus)
Experiment: Inhibition of [3H]PK11195 binding to Peripheral type benzodiazepine receptor (PBR) in rat cortex homogenate by 50%
reportedMetric: Ki (nM)
Numbers only, in nM.

Below are worked cases with known answers.
• CCCCN(C)C(=O)OC1=C(c2ccccc2)Oc2ccccc2-n2cccc21 = 0.92
• CCN(CC)C(=O)OC1=C(c2ccccc2)Cc2ccccc2-n2cccc21 = 5.7
• CCN(CC)C(=O)OC1=C(c2ccccc2)Oc2cccnc2-n2cccc21 = 1.77
• CC(=O)OC1=C(c2cccc(C)c2)Oc2ccccc2-n2cccc21 = 2.5

Value sought for every listed compound: Ki.
1. CCN(CC)C(=O)OC1=C(c2cccs2)Oc2cccnc2-n2cccc21
2. CCCNC(=O)OC1=C(c2ccccc2)Oc2ccccc2-n2cccc21
3. CCN(CC)C(=O)OC1=C(c2cccc(C)c2)Oc2cccnc2-n2cccc21
4. O=C(OC1=C(c2ccccc2)Oc2ccccc2-n2cccc21)N1CCC1
5. O=C(NC1CC1)OC1=C(c2ccccc2)Oc2ccccc2-n2cccc21
6. CCN(CC)C(=O)OC1=C(c2cc(F)cc(F)c2)Oc2ccccc2-n2cccc21
7. CCNC(=O)OC1=C(c2ccc(C)cc2)Oc2ccccc2-n2cccc21
8. CC(=O)OC1=C(c2ccc(C)cc2)Oc2cccnc2-n2cccc21

0.23
0.91
0.56
6.03
2.21
1.26
0.68
13.5

###

Record form. Attribute: Ki. Fill in for each entry.
Target: UniProt:P16257
Experiment: Inhibition of [3H]PK11195 binding to Peripheral type benzodiazepine receptor (PBR) in rat cortex homogenate by 50%
Give bare numbers, in nM.

Each compound below has a reported value. Please supply its Ki.
1. CCN(C)C(=O)OC1=C(c2ccccc2)Oc2ccccc2-n2cccc21
2. CN1CCN(C(=O)OC2=C(c3ccccc3)Oc3ccccc3-n3cccc32)CC1
3. CCN(CC)C(=O)OC1=C(c2cccs2)Oc2ccccc2-n2cccc21
4. Cc1ccc(C2=C(OC(=O)N(C)C)c3cccn3-c3ncccc3O2)cc1
5. CCN(CC)C(=O)OC1=C(c2cccc(C)c2)Oc2ccccc2-n2cccc21
6. CCNC(=O)OC1=C(c2ccccc2)Oc2c(Cl)cccc2-n2cccc21

1. 0.78
2. 7.2
3. 11.5
4. 0.44
5. 1.2
6. 0.18

I have 2 compounds here; please give me Ki for each one.
1. CCCN(C)C(=O)OC1=C(c2ccccc2)Oc2ccccc2-n2cccc21
2. CCNC(=O)OC1=C(c2ccccc2)Oc2ccccc2-n2cccc21

1. 0.69
2. 0.11
